- testTarget: T1, human LILRB1 (human, UniProt Q8NHL6 24-650)
- T1 construct: whole, on cells; also called hLILRB1
- T1 sequence (Q8NHL6 24-650): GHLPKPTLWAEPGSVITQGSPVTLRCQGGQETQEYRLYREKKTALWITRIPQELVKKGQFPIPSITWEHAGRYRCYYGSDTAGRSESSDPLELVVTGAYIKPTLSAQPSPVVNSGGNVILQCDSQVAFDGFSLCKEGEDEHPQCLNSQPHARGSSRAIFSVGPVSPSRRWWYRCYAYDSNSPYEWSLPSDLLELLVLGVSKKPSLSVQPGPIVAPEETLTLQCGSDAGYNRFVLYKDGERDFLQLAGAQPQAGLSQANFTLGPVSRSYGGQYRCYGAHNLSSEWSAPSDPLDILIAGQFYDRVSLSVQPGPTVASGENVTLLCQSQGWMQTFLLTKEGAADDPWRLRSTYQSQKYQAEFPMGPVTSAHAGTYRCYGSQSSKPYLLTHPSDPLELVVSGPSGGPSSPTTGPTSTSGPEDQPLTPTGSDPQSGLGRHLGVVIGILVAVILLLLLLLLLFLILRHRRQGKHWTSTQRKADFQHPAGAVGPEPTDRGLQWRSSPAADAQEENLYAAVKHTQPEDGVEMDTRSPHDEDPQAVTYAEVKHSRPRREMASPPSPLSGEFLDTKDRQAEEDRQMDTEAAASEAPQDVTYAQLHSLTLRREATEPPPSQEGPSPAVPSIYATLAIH
- methodDescription: FACS, 293F-hLILRB1 cells
assayReadout: MFI (MFI)
Kindly provide the numeric value in MFI only, without the unit symbol.

Sample records with MFI:
{"binder": "2-H1-D7-E5-D5 (antibody, V domains shown, mouse monoclonal hybridoma antibody) VH: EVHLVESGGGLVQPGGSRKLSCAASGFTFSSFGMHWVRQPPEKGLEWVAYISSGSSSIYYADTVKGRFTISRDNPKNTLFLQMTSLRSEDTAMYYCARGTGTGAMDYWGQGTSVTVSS VL: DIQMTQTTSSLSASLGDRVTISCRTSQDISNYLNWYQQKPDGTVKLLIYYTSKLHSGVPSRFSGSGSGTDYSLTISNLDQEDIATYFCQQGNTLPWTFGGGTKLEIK", "MFI / MFI": 25.2}
{"binder": "42-C8-A12-F3-D11 (antibody, V domains shown, mouse monoclonal hybridoma antibody) VH: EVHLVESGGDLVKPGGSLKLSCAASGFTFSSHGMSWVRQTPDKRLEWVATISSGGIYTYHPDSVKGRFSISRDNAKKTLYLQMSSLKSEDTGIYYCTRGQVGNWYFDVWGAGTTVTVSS VL: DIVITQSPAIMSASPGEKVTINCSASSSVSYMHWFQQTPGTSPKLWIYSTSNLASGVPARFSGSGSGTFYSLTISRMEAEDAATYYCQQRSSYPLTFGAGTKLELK", "MFI / MFI": 29.6}
{"binder": "7-B4-C1-C9 (antibody, V domains shown, mouse monoclonal hybridoma antibody) VH: EVQLQQSGTELVKPGASVKLSCKASGYTFTNYWMHWVKQRPGQGLEWIGEINPSNGRTNYNEKFKTKATLTVDKSSSTAYMQLSSLTSEDSAVYYCARSTYYGYDWYFDVWGAGTTVTVSS VL: DIVLTQSPSSMYASLGERVTITCKASQDINSYLSWFQQKPGKSPKTLIYRANRLLDGVPSRFSGGGSGQDYSLTISSLEHEDMGIYYCLQCDEFPHTFGGGTKLEIK", "MFI / MFI": 27.7}
{"binder": "4-E6-E4-B12 (antibody, V domains shown, mouse monoclonal hybridoma antibody) VH: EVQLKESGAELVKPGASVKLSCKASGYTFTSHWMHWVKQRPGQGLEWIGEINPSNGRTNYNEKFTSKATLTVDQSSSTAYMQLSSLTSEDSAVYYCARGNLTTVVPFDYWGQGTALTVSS VL: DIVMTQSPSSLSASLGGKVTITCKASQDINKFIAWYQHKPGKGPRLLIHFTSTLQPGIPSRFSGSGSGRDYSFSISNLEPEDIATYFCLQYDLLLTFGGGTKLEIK", "MFI / MFI": 23.6}

Attention now turns to another entry.
Using the record for 27-G5-E9-B8 (antibody, V domains shown, mouse monoclonal hybridoma antibody) VH: EVQLVESGGGLVQPGGSRKLSCAASGFTFSSFGMHWVRQAPEKGLEWVAYISSGSSTIYYADTVKGRFTISRDNPKNTLFLQMTSLRSEDTAMYYCARSTGTGAMDYWGQGTSVTVSS VL: DIQMTQTTSSLSASLGDSVTFSCRASQDISNYLNWYQQKPDGTVKLLISYTSRLHSGVPSRFSGSGSGTDYSLTISNLEQEDIATYFCQQGNALPWTFGGGTKLEIK , state its measured MFI.
20.2
